procedureSummary: Selectivity index, ratio of IC50 for human HepG2 cells to IC50 for chloroquine-resistant Plasmodium falciparum W2
measuredEndpoint: Ratio IC50

compound	measuredResult
Cc1ccc(S(=O)(=O)Cc2nc(Nc3ccc(F)cc3)c3ccccc3n2)cc1	>0.75
Cc1ccc(S(=O)(=O)Cc2nc(Nc3ccccc3)c3cc([N+](=O)[O-])ccc3n2)cc1	>5
CC(C)=Cc1nc(Nc2ccc(F)cc2)c2cc([N+](=O)[O-])ccc2n1	4.8
Cc1ccc(S(=O)(=O)Cc2nc(Nc3ccc(F)cc3)c3cc([N+](=O)[O-])ccc3n2)cc1	>23
C[C@H]1c2cccc(O)c2C(=O)C2=C(O)[C@]3(O)C(=O)C(C(N)=O)=C(O)[C@@H](N(C)C)[C@@H]3[C@@H](O)[C@@H]21.O [DOXYCYCLINE]	3.1
Cc1ccc(S(=O)(=O)Cc2nc(Nc3cccc(Cl)c3)c3cc([N+](=O)[O-])ccc3n2)cc1	>77
Cc1ccc(S(=O)(=O)Cc2nc(Nc3cccc(C(F)(F)F)c3)c3ccccc3n2)cc1	>1.7
Cc1ccc(S(=O)(=O)Cc2nc(Nc3ccccc3Cl)c3ccccc3n2)cc1	>3.6
Cc1ccc(S(=O)(=O)Cc2nc(Nc3cccc(Br)c3)c3ccccc3n2)cc1	>1.2
CC(C)=Cc1nc(Nc2ccccc2)c2cc([N+](=O)[O-])ccc2n1	2.9
CC(C)=Cc1nc(Nc2cccc(C(F)(F)F)c2)c2cc([N+](=O)[O-])ccc2n1	31.3
Cc1ccc(S(=O)(=O)Cc2nc(Nc3cccc(C(F)(F)F)c3)c3cc([N+](=O)[O-])ccc3n2)cc1	>105
CC(C)=Cc1nc(Nc2cccc(Br)c2)c2cc([N+](=O)[O-])ccc2n1	>2
